Numbers sourced from the supplement of paper PMC5407854.

- Test system: ppGalNAc-T2 sensor
- PROTOCOL_TEXT: T2 sensor activation Q score (MG/GFP ratio z-score vs DMSO controls) (SD units); higher = more sensor activation (inhibition of ppGalNAc-T2 glycosylation)
- APPLIED_CONDITIONS: HEK293 sensor cells; 10 µM; 6 h
The full ranking holds about 1,700 compounds; the median of “T2 sensor activation Q score (MG/GFP ratio z-score vs DMSO controls)” is about 0.3, and the highest 2% start at about 1.9. Many of the other results were omitted from the sample, so the highest values are more common in it than they were.
Assign 1.0 whenever T2 sensor activation Q score does not fall below 0.9; assign 0.0 whenever it does.

- MOLECULE: "COc1cc(-c2ccc(Nc3ccccc3C(=O)O)c(OC)c2)ccc1Nc1ccccc1C(=O)O"
  LABEL_VALUE: 0.0
- MOLECULE: "O=C(/C=C/c1cccnc1)/C=C/c1cccnc1"
  LABEL_VALUE: 1.0
- MOLECULE: "Cc1nc(N)nc(Nc2ccc(C#N)cc2)c1Br"
  LABEL_VALUE: 1.0

Is reported T2 sensor activation Q score greater than or equal to 0.9 here: CSC1=NC=C(C#N)C2=NC(c3ccc(Cl)cc3)NN12 (stereo unspecified) 1.0

Is reported T2 sensor activation Q score greater than or equal to 0.9 here: CN(C)c1ccc(/C=N\NC(=O)c2cnc3ccccc3c2)cc1 0.0

Is reported T2 sensor activation Q score greater than or equal to 0.9 here: COc1cnc(SC)nc1Nc1ccc(C#N)cc1 1.0

Is reported T2 sensor activation Q score greater than or equal to 0.9 here: CC(C)=NNc1ncnc2nc[nH]c12 1.0

Is reported T2 sensor activation Q score greater than or equal to 0.9 here: COC(=O)c1cc(C)[nH]c2c(C)cc3nc4ccccc4c3c12 0.0

Is reported T2 sensor activation Q score greater than or equal to 0.9 here: Cc1cc(=O)n2[nH]c(-c3ccc(C(C)(C)C)cc3)cc2n1 0.0

Is reported T2 sensor activation Q score greater than or equal to 0.9 here: CC(C)CCCCCCCCCCCCC(=O)NCC(=O)NC1C(C)OC(Nc2ncnc3nc[nH]c23)C(O)C1O (stereo unspecified) 1.0
